Kindly state melting point for each of the entries shown.

* O=S(=O)(CCO)c1ccccc1 | 87 to 89 °C
* CC1CCc2nc(N)sc2C1 (stereo unspecified) | 98 to 100 °C
* COC(=O)C=C(C(=O)OC)N1CCC23C=CC(O)CC2Oc2c(OC)ccc(c23)C1 (stereo unspecified) | 121 to 122 °C
* O=C(CC1CCCC1)Nc1ccc2c(c1)C(=O)C(Br)CC2 (stereo unspecified) | 162 to 164 °C

// each listed compound needs a value for melting point
1. CC(CC#N)C(C#N)(c1cccc(C(F)(F)F)c1)N1CCOCC1 (stereo unspecified)
2. CC1Cc2cc(S(=O)(=O)n3cc(-c4ccccc4)[nH]c3=O)ccc2N1C(=O)CCl (stereo unspecified)

Key:
1: 115 to 118 °C; 2: 157 to 159 °C
